I'd be grateful if you could share measured IC50 for these entries.
# target system: JH2 domain of human Tyk2 (Homo sapiens)
# Construct: 10×His-tagged TYK2 JH2 domain (amino acid 575-876)
# Sequence (P29597 575-876): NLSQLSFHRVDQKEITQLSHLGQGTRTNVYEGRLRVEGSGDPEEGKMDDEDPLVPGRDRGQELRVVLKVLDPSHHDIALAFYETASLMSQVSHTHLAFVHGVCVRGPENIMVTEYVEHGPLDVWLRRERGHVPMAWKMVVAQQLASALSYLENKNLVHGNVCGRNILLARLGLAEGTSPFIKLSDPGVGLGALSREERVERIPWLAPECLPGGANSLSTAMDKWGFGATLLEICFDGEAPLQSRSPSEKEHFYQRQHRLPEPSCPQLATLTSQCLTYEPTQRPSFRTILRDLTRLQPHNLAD
# assay summary: JH2 biochemical assay (TR-FRET probe displacement)
# Format: binding
# condition notes: JH2 biochemical assay

Given the molecule CC(=O)Nc1cc2c(cn1)C1(CC1)CN2c1cc(=O)[nH]c(C(C)(F)F)n1 , what is its reported IC50?
≤ 10 nM

So what's the measured IC50 for this one? CC(=O)Nc1cc2c(cn1)C1(CCOCC1)CN2c1cccc(C(C)(F)F)n1
100 to 1000 nM

Would you kindly share the measured IC50 for CC(=O)Nc1cc2c(cn1)C1(CC1)CN2c1cc(C)nc(-n2cccn2)n1 ?
10 to 100 nM

Please report the recorded IC50 for CC(=O)Nc1cc2c(cn1)C1(CC1)CN2c1cc(C)cc(N2CCN(C)CC2)n1 .
100 to 1000 nM

====

Hi there, I'd appreciate the recorded pIC50 for every entry that follows.
# target system: JH2 domain of human Tyk2 (Homo sapiens)
# Construct: 10×His-tagged TYK2 JH2 domain (amino acid 575-876)
# assay summary: JH2 biochemical assay (TR-FRET probe displacement)
# Assay type: binding
# condition notes: JH2 biochemical assay
pIC50: −log10 of the molar value. Counter-ions that a name gives are not always drawn.

Reported pIC50, molecule COCCNc1cc(N2CC3(CC3)c3cnc(NC(C)=O)cc32)nc(C(C)(F)F)n1 : ____
≥ 8.00

Reported pIC50 for CC(=O)Nc1cc2c(cn1)C1(CC1)CN2c1cc(C)cc(N2CCC(O)C2)n1 (stereo not shown) : what is it?
7.00 to 8.00

Give its pIC50 value. Item: CC(=O)Nc1cc2c(cn1)C1(CC1)CN2c1cc(C)nc(C2CC3CCC2O3)n1 (stereo not shown) [Example 102, trifluoroacetate]
7.00 to 8.00

Record request: pIC50 value, item CC(=O)Nc1cc2c(cn1)C1(CC1)CN2c1cc(C)cc(OC2COC2)n1 [Example 341, trifluoroacetate]
≤ 6.00

Looking for the measured pIC50 of CC(=O)Nc1cc2c(cn1)C1(CC1)CN2c1cc(C)cc(C(F)(F)CO)n1 , can you help?
≥ 8.00

Could you share which pIC50 value was measured for CC(=O)Nc1cc2c(cn1)C1(CCN(C)CC1)CN2c1nccc(C(C)(F)F)n1 ?
6.00 to 7.00

Requested read-out: pIC50. Entry: COC(C)(C)CNc1cc(N2CC3(CC3)c3cnc(NC(C)=O)cc32)nc(C(C)(F)F)n1 [Example 158, trifluoroacetate]
≥ 8.00

Would you kindly share the measured pIC50 for COCCOc1nc(N2CC3(CC3)c3cnc(NC(C)=O)cc32)cc(C(C)(F)F)n1 ?
≥ 8.00

I would be grateful if you could share the reported pIC50 for CCC(C)(O)CCc1cc(N2CC3(CC3)c3cnc(NC(C)=O)cc32)nc(C(C)(F)F)n1 (stereo not shown) .
≥ 8.00

Would you mind telling me what pIC50 value was observed for CC(=O)Nc1cc2c(cn1)C1(CC1)CN2c1cc(C)nc(C(F)(F)F)n1 ?
7.00 to 8.00

I would be grateful if you could share the reported pIC50 for CC(=O)Nc1cc2c(cn1)C1(CC1)CN2c1cc(C)cc(OC2CC(C#N)C2)n1 (stereo not shown) [Example 344, trifluoroacetate] .
6.00 to 7.00

Requested read-out: pIC50. Entry: CC(=O)Nc1cc2c(cn1)C1(CC1)CN2c1cc(C)nc(C2CCN(S(C)(=O)=O)CC2)n1
6.00 to 7.00

Requested field: pIC50. Item: CC(=O)Nc1cc2c(cn1)C1(CC1)CN2c1cc(C)cc(OC2CC(F)C2)n1 (stereo not shown) [Example 346, trifluoroacetate]
6.00 to 7.00

Reported pIC50, molecule CC(=O)Nc1cc2c(cn1)C1(CC1)CN2c1cc(C)cc(-c2cnn(C3COC3)c2)n1 [Example 265, trifluoroacetate] : ____
7.00 to 8.00

// lookup pIC50 for CC(=O)Nc1cc2c(cn1)C1(CC1)CN2c1cc(C)cc(C2(O)CCOC2)n1 (stereo not shown)
≥ 8.00

Tell me the measured pIC50 of CC(=O)Nc1cc2c(cn1)C1(CC1)CN2c1cc(C)nc(OCC(C)(C)O)n1 , please.
7.00 to 8.00

Requested field: pIC50. Item: CC(=O)Nc1cc2c(cn1)C1(CC1)CN2c1cc(C)nc(F)n1 [Example 332, trifluoroacetate]
6.00 to 7.00

Endpoint output: pIC50 of CCC(=O)Nc1cc2c(cn1)C1(CC1)CN2c1cccc(C(C)(F)F)n1 . Value?
≥ 8.00

Bench note: what pIC50 did CC(=O)Nc1cc2c(cn1)C1(CC1)CN2c1cc(C)cc(N2CC(C)(O)C2)n1 show?
7.00 to 8.00

Look up pIC50: CC(=O)Nc1cc2c(cn1)C1(CC1)CN2c1cc(C)cc(N(C)C)n1
7.00 to 8.00

Tell me the measured pIC50 of CC(=O)Nc1cc2c(cn1)C1(CC1)CN2c1cc(C)cc(C(F)(F)CF)n1 [Example 316, trifluoroacetate] , please.
≥ 8.00

Field request: pIC50 | item: CC(=O)Nc1cc2c(cn1)C1(CC1)CN2c1cc(C)cc(N2CC(S(C)(=O)=O)C2)n1
6.00 to 7.00

What pIC50 value was documented for this molecule, CC(=O)Nc1cc2c(cn1)C1(CC1)CN2c1cc(C)cc(-c2ccn(C)n2)n1 [Example 256, trifluoroacetate] ?
7.00 to 8.00

// query pIC50 value for entry CC(=O)Nc1cc2c(cn1)C1(CC1)CN2c1cc(NCC(C)F)nc(C(C)(F)F)n1 (stereo not shown) [Example 169, trifluoroacetate]
≥ 8.00

Could you share which pIC50 value was measured for CC(=O)Nc1cc2c(cn1)C1(CC1)CN2c1cc(C)nc(C2CCN(C(C)=O)CC2)n1 ?
6.00 to 7.00

Any idea what its pIC50 is? The molecule is CC(=O)Nc1cc2c(cn1)C1(CC1)CN2c1cc(C)nc(OCC23CC(C)(CO2)C3)n1
≤ 6.00

Param item = COC1(c2nc(C)cc(N3CC4(CC4)c4cnc(NC(C)=O)cc43)n2)CCC1 ; retrieve measured pIC50.
≥ 8.00

Any idea what pIC50 was measured for COCC1CC(Oc2cc(C)cc(N3CC4(CC4)c4cnc(NC(C)=O)cc43)n2)C1 (stereo not shown) [Example 345, trifluoroacetate] ?
6.00 to 7.00

Fill in the blank: the reported pIC50 of CC(=O)Nc1cc2c(cn1)C1(CC1)CN2c1cc(C)cc(N2CCC(F)(F)C2)n1 is ____.
7.00 to 8.00

Look at this molecule and give its reported pIC50. CC(=O)Nc1cc2c(cn1)C1(CC1)CN2c1cc([C@@H]2C[C@H]2C#N)nc(C(C)(F)F)n1 (racemic)
≥ 8.00

Tell me the measured pIC50 of CCN1CC(Oc2cc(N3CC4(CC4)c4cnc(NC(C)=O)cc43)nc(C(C)(F)F)n2)C1 [Example 148, trifluoroacetate] , please.
≤ 6.00
